tgt: T1, HLA-A*01:01 (human)
T1 construct: Peptide-receptive MHC class I monomer after UV cleavage of a UV-sensitive ligand; captured on streptavidin plates, detected with anti-b2m
assay text: UV-ligand exchange, anti-b2m ELISA; peptide exchange yield grade
Listed binders paired with reported peptide exchange yield

# binder, peptide exchange yield
rows = [
    ("TFVDASRTLY", "≥ 75%"),
    ("MTDVDRDGTTAY", "≥ 75%"),
    ("LTNDQTLRL", "50 to 75%"),
    ("TSDTSQYDTY", "50 to 75%"),
    ("RVDDITDQF", "20 to 50%"),
    ("LSDLSLADI", "20 to 50%"),
    ("WLDRSTILY", "≥ 75%"),
    ("YSIDVTNVM", "50 to 75%"),
]
